MEASURED ON: DNA topoisomerase 1 (Homo sapiens)
Sequence (whole entry): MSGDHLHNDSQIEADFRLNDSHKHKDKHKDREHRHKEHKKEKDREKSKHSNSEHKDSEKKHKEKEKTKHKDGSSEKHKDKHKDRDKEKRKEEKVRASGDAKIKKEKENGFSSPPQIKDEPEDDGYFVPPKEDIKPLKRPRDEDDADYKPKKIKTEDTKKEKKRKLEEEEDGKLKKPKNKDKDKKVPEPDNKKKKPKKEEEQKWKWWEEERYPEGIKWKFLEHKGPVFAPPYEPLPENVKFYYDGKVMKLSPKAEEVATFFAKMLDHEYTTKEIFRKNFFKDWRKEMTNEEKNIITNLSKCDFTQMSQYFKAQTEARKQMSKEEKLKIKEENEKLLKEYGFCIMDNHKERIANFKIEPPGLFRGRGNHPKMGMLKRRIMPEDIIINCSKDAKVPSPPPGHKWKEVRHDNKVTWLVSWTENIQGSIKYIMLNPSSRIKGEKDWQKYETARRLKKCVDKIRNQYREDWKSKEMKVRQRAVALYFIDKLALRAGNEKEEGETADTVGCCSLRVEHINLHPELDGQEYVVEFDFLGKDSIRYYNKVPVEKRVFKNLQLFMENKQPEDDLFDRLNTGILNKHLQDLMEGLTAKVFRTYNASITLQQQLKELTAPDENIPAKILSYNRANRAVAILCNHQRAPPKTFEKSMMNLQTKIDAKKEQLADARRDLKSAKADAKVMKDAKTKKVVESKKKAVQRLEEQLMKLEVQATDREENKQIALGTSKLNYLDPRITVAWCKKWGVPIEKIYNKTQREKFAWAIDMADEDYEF
RUN DESCRIPTION: Inhibition of recombinant human DNA topoisomerase 1 expressed in baculovirus expression system assessed as decrease in relaxation of supercoiled pBR322 plasmid DNA at 100 uM using supercoiled pBR322 plasmid DNA as substrate incubated for 30 mins by ethidium bromide staining-based UV imaging analysis relative to control
PROPERTY: inhibition

O=C(/C=C/c1cccs1)c1ccccc1OCC1CS1 (stereo not drawn) | 0.4%
O=C(/C=C/c1ccoc1)c1ccc(OCC2CS2)cc1 (stereo not drawn) | 0%
O=C(/C=C/c1ccco1)c1ccccc1OCC1CS1 (stereo not drawn) | 61.2%
O=C(/C=C/c1ccc(OCC2CS2)cc1)c1cccs1 (stereo not drawn) | 5.1%

Which inhibition is reported for this compound? O=C(/C=C/c1ccc(OCC2CO2)cc1)c1cccs1 (stereo not drawn)
34.1%

Next compound up: O=C(/C=C/c1cccs1)c1ccccc1OCC1CO1 (stereo not drawn)
11.1%
